Measured IC50 by item
- Test system: CPT-K5 (camptothecin-resistant variant of RPMI 8402)
- method description: MTT-microtiter plate tetrazolinium cytotoxicity assay, CPT-K5
- Assay type: cell-based
- conditions: Homo sapiens, continuous exposure 3-4 days

Worked examples follow.
compound | IC50
COc1ccc2nnc3c4cc(OC)c(OC)cc4ccc3c2c1 [Compound 61, 2,3,9-Trimethoxydibenzo[c,h]cinnoline] | 31 µM
COc1cc2ccc3c4cc(OC)c(OC)cc4nnc3c2cc1OC [Compound 19] | > 10 µM
COc1ccc2ccc3c4cc5c(cc4nnc3c2c1)OCO5 [Compound 44] | 1.3 µM

Lookup: Entry COc1cc2ccc3c4ccccc4nnc3c2cc1OC [Compound 6, 2,3-Dimethoxy-dibenzo[c,h]cinnoline] has what IC50?
Found: 10 µM

----------
- Test system: U-937/CR cells
- method description: MTT-microtiter plate tetrazolinium cytotoxicity assay, U937/CR
- Format: cell-based
- conditions: Homo sapiens, continuous exposure 3-4 days
endpoint: log10 IC50 (log10 of the value in µM)
A value of 2 here means IC50 of 100 in µM, since values are log10.

compound | reported measurement
COc1cc2ccc3c4ccccc4nnc3c2cc1OC [Compound 6, 2,3-Dimethoxy-dibenzo[c,h]cinnoline] | 0.48
COc1ccc2ccc3c4cc5c(cc4nnc3c2c1)OCO5 [Compound 44] | -0.05
COc1cc2ccc3c4cc(OC)c(OC)cc4nnc3c2cc1OC [Compound 19] | 1.30
COc1ccc2c(c1)nnc1c3cc(OC)c(OC)cc3ccc21 [Compound 60, 2,3,8-Trimethoxydibenzo[c,h]cinnoline] | 0.40

Lookup: What value of log10 IC50 on U-937/CR cells does COc1ccc2c(ccc3c4cc5c(cc4nnc23)OCO5)c1 [Compound 43] have?
Found: 1.48

Lookup: What value of log10 IC50 on U-937/CR cells does COc1ccc2nnc3c4cc(OC)c(OC)cc4ccc3c2c1 [Compound 61, 2,3,9-Trimethoxydibenzo[c,h]cinnoline] have?
Found: 0.78

Lookup: What value of log10 IC50 on U-937/CR cells does COc1cc2ccc3c4cc(OCc5ccccc5)c(OC)cc4nnc3c2cc1OC [Compound 42] have?
Found: 1.60

Lookup: What value of log10 IC50 on U-937/CR cells does COc1cc2ccc3c4cc5c(cc4nnc3c2cc1OC)OCO5 [Compound 14] have?
Found: 0.48

----------
- Test system: human lymphoblast RPMI 8402
- method description: MTT-microtiter plate tetrazolinium cytotoxicity assay, RPMI 8402
- Format: cell-based
- conditions: continuous exposure 3-4 days
endpoint: log10 of IC50 (log10 of the value in µM)
A value of 2 here means IC50 of 100 in µM, since values are log10.

Worked examples follow.
compound | log10 of IC50
COc1cc2ccc3c4cc(OC)c(OC)cc4nnc3c2cc1OC | 1.00
COc1cc2ccc3c4ccccc4nnc3c2cc1OC [Compound 6, 2,3-Dimethoxy-dibenzo[c,h]cinnoline] | 0.48

Lookup: Entry COc1ccc2c(c1)nnc1c3cc(OC)c(OC)cc3ccc21 [Compound 60, 2,3,8-Trimethoxydibenzo[c,h]cinnoline] has what log10 of IC50?
Found: 0.30

Lookup: Entry COc1ccc2ccc3c4cc5c(cc4nnc3c2c1)OCO5 has what log10 of IC50?
Found: -0.30

Lookup: Entry COc1ccc2nnc3c4cc(OC)c(OC)cc4ccc3c2c1 [Compound 61, 2,3,9-Trimethoxydibenzo[c,h]cinnoline] has what log10 of IC50?
Found: 0.60

Lookup: Entry COc1cc2ccc3c4cc(OCc5ccccc5)c(OC)cc4nnc3c2cc1OC has what log10 of IC50?
Found: 1.58

Lookup: Entry COc1cc2ccc3c4cc5c(cc4nnc3c2cc1OC)OCO5 has what log10 of IC50?
Found: -1.22

----------
Measured Topoisomerase I-mediated DNA cleavage (REC, Relative Effective Concentration) by item
- subject of test: human topoisomerase I (Homo sapiens, UniProt P11387)
- Construct: unnamed fusion partner (recombinant fusion protein, T7 expression system); made in house; host or cells: E. coli
- Sequence (P11387 whole entry, the tested form may be a part): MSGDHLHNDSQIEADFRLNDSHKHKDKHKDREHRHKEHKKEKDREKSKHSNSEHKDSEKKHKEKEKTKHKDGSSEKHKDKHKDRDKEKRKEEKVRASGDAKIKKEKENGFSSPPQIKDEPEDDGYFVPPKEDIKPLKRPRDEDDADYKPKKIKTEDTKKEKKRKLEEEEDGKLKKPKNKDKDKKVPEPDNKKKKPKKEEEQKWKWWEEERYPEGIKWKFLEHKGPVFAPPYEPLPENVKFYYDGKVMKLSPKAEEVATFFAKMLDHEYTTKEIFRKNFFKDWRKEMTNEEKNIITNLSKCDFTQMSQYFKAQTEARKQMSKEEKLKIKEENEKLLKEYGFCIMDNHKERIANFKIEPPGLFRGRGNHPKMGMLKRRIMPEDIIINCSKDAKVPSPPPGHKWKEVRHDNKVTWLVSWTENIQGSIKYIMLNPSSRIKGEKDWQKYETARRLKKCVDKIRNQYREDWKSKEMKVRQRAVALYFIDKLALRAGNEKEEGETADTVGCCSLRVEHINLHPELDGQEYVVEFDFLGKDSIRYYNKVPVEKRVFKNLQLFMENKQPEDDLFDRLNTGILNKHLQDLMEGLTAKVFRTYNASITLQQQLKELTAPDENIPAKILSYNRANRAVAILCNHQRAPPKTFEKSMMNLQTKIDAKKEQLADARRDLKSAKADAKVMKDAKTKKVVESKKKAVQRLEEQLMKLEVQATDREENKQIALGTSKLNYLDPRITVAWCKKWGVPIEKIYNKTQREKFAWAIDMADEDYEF
- method description: Test A. Topoisomerase I-mediated DNA cleavage assay
- Format: biochemical
- conditions: concentration relative to 2,3-dimethoxy-8,9-methylenedioxybenzo[i]phenanthridine (=1.0) producing same cleavage (approx. 10% DNA fragmentation); 30 min, 37° C.
- Text: Test A. Topoisomerase I-mediated DNA Cleavage Assay Human topoisomerase I was expressed in E. Coli and isolated as a recombinant fusion protein using a T7 expression system as described previously (Makhey, D. et al., Bioorg. Med. Chem., 2000, 8, 1-11). DNA topoisomerase I was purified from calf thymus gland as reported previously (Maniatis, T., et al., J. Molecular Cloning, a Laboratory Manual, Cold Spring Harbor Laboratory, Cold Spring Harbor, N.Y., 149-185). […]
Write the value as a bare number.

Worked examples follow.
compound | reported measurement
COc1ccc2nnc3c4cc(OC)c(OC)cc4ccc3c2c1 [Compound 61, 2,3,9-Trimethoxydibenzo[c,h]cinnoline] | 10
COc1cc2ccc3c4ccccc4nnc3c2cc1OC [Compound 6, 2,3-Dimethoxy-dibenzo[c,h]cinnoline] | 5
COc1ccc2c(c1)nnc1c3cc(OC)c(OC)cc3ccc21 [Compound 60, 2,3,8-Trimethoxydibenzo[c,h]cinnoline] | 2

// next entry
Lookup: Entry COc1cc2ccc3c4cc5c(cc4nnc3c2cc1OC)OCO5 has what Topoisomerase I-mediated DNA cleavage (REC, Relative Effective Concentration)?
Found: 0.01

----------
- System: HCT116 (colon)
- method description: MTT-microtiter plate tetrazolinium cytotoxicity assay, HCT116
- Format: cell-based
- conditions: Homo sapiens, HCT-116, continuous exposure 3-4 days
endpoint: pIC50
Value format note: pIC50 is -log10 of concentration (mol/L); just state the number.

compound | reported measurement
CC[C@]1(O)C[C@@H]2CN(CCc3c([nH]c4ccccc34)[C@@](C(=O)OC)(c3cc4c(cc3OC)N(C)[C@H]3[C@@](O)(C(=O)OC)[C@H](OC(C)=O)[C@]5(CC)C=CCN6CC[C@]43[C@@H]65)C2)C1 | 8.52
COc1cc2ccc3c4ccccc4nnc3c2cc1OC [Compound 6, 2,3-Dimethoxy-dibenzo[c,h]cinnoline] | 5.49

// next entry
Lookup: Entry COc1cc2ccc3c4cc5c(cc4nnc3c2cc1OC)OCO5 has what pIC50?
Found: 7.46

----------
- Test system: KB3-1 (oral)
- method description: MTT-microtiter plate tetrazolinium cytotoxicity assay, KB3-1
- Format: cell-based
- conditions: Homo sapiens, KB 3-1, continuous exposure 3-4 days
endpoint: IC50 (nM)
Give a bare numeral; the unit nM is implied.

Worked examples follow.
compound | IC50 / nM
COc1cc2ccc3c4ccccc4nnc3c2cc1OC [Compound 6, 2,3-Dimethoxy-dibenzo[c,h]cinnoline] | 6000
COc1cc2ccc3c4cc5c(cc4nnc3c2cc1OC)OCO5 | 70

// next entry
Lookup: Entry CC[C@]1(O)C[C@@H]2CN(CCc3c([nH]c4ccccc34)[C@@](C(=O)OC)(c3cc4c(cc3OC)N(C)[C@H]3[C@@](O)(C(=O)OC)[C@H](OC(C)=O)[C@]5(CC)C=CCN6CC[C@]43[C@@H]65)C2)C1 has what IC50?
Found: 3

----------
- Tested on: CPT-K5 (camptothecin-resistant variant of RPMI 8402)
- method description: MTT-microtiter plate tetrazolinium cytotoxicity assay, CPT-K5
- Assay type: cell-based
- conditions: Homo sapiens, continuous exposure 3-4 days
endpoint: IC50 (µM)
Give a bare numeral; the unit µM is implied.

molecule | IC50 (µM)
COc1ccc2c(ccc3c4cc5c(cc4nnc23)OCO5)c1 [Compound 43] | 52

Lookup: Entry COc1cc2ccc3c4cc5c(cc4nnc3c2cc1OC)OCO5 [Compound 14] has what IC50?
Found: 6

Lookup: Entry COc1ccc2c(c1)nnc1c3cc(OC)c(OC)cc3ccc21 [Compound 60, 2,3,8-Trimethoxydibenzo[c,h]cinnoline] has what IC50?
Found: 4

Lookup: Entry COc1cc2ccc3c4cc(OCc5ccccc5)c(OC)cc4nnc3c2cc1OC [Compound 42] has what IC50?
Found: 61

----------
endpoint: melting point

Worked examples follow.
molecule | melting point
COc1cc2ccc3c4cc(OCc5ccccc5)c(OC)cc4nnc3c2cc1OC [Compound 42] | 244 to 246 °C
COc1ccc2c(ccc3c4cc5c(cc4nnc23)OCO5)c1 [Compound 43] | 258 to 260 °C
COc1ccc2nnc3c4cc(OC)c(OC)cc4ccc3c2c1 [Compound 61, 2,3,9-Trimethoxydibenzo[c,h]cinnoline] | 215 to 217 °C
COc1ccc2ccc3c4cc5c(cc4nnc3c2c1)OCO5 [Compound 44] | 259 to 261 °C

Lookup: Entry COc1ccc2c(c1)nnc1c3cc(OC)c(OC)cc3ccc21 [Compound 60, 2,3,8-Trimethoxydibenzo[c,h]cinnoline] has what melting point?
Found: 244 to 246 °C
